Source: patent US20250296938A1

- SYSTEM_NAME: Rac-1 (Homo sapiens, UniProt P63000)
- METHOD_NOTES: Ras GTP binding domain inhibition assay (Cy3-GTP/Cy5-GTP competition)
- CONDITION_INFO: without SOS, read-out: Rac-1: % inh.
inhibition at 20 µM values, listed per item

Use the examples below as a reference point.
COCC(C)Nc1nc(-c2nccn2C)nc2sc(-c3cccc(OC)c3)c(-c3cscn3)c12 (stereo not drawn) [drawing 990]    26 to 50%
COc1ccc(-c2c(-c3ccn(C)n3)sc3nc(-c4nccn4C)nc(N4CCC(OC)C4)c23)cc1 (stereo not drawn) [drawing 1003]    0%
COC1CCN(c2nc(-c3nccn3C)nc3sc(Br)c(-c4ccccc4)c23)C1 (stereo not drawn) [drawing 957]    1 to 25%
CO[C@H]1CC[C@@H](Nc2nc(-c3ncc[nH]3)nc3sc(-c4ccn(C)n4)c(-c4ccccc4)c23)C1 [drawing 1046]    51 to 75%
CO[C@H]1C[C@@H](Nc2nc(-c3nccn3C)nc3sc(-c4cnn(C)c4)c(-c4ccccc4)c23)C1 [drawing 1027]    76 to 100%

Continue with the compound presented below.
Request: Recorded inhibition at 20 µM for COC1CCN(c2nc(-c3nccn3C)nc3sc(-c4cnc(C5CC5)o4)c(-c4ccccc4)c23)C1 (stereo not drawn) [drawing 977] , please?
Response: 1 to 25%
